Measured pIC50 accompanies every entry in the list below.
tested on: AGS (ATCC-CRL-1739) cells; assay: Cell viability assay, G12D (AGS); type: cell-based, human; details: Homo sapiens, KRAS cell viability, 72 hrs, Cell Counting Kit-8
Just the number, please; pIC50 means minus log10 of the concentration in mol/L.

Past entries and their recorded results:
molecule: CO[C@@H](C)c1ncc(N2CCN(CC(F)(F)F)CC2)cc1-c1c2c3cc(c(F)cc3n1CC(F)(F)F)-c1csc(n1)C[C@H](NC(=O)[C@H](C(C)C)N(C)C(=O)[C@H]1CCN(C(=O)[C@H](F)Cl)C1)C(=O)N1CCC[C@H](N1)C(=O)OCC(C)(C)C2 (atropisomer, axis not shown; (M)) [Example 26]
pIC50: 6.59
//
molecule: CO[C@@H](C)c1ncc(N2CCN(C)CC2)cc1-c1c2c3cc(c(F)cc3n1CC(F)(F)F)-c1csc(n1)C[C@H](NC(=O)[C@@H](COC1CN(C(=O)[C@H](F)Cl)C1)C(C)C)C(=O)N1CCC[C@H](N1)C(=O)OCC(C)(C)C2 (atropisomer, axis not shown; (M)) [Example 13]
pIC50: 5.62
//
molecule: CO[C@@H](C)c1ncc(N2CCN(C)CC2)cc1-c1c2c3c(F)c(ccc3n1CC(F)(F)F)-c1csc(n1)C[C@H](NC(=O)[C@H](C(C)C)N1CCCC3(CCN(C(=O)[C@H](F)Cl)CC3)C1=O)C(=O)N1CCC[C@H](N1)C(=O)OCC(C)(C)C2 (atropisomer, axis not shown; (M)) [Example 20]
pIC50: 6.13
//
molecule: CO[C@@H](C)c1ncc(N2CCN(CC(F)(F)F)CC2)cc1-c1c2c3cc(c(F)cc3n1CC(F)(F)F)-c1csc(n1)C[C@H](NC(=O)[C@H](C(C)C)N1CC[C@]3(CCN(C(=O)[C@H](F)Cl)C3)C1=O)C(=O)N1CCC[C@H](N1)C(=O)OCC(C)(C)C2 (atropisomer, axis not shown; (M)) [Example 45]
pIC50: 6.87
//
molecule: CCn1c(-c2cc(N3CCN(C)CC3)cnc2[C@H](C)OC)c2c3cc(c(F)cc31)-c1csc(n1)C[C@H](NC(=O)[C@H](C(C)C)N1CC[C@@]3(CCN(C(=O)[C@H](F)Cl)C3)C1=O)C(=O)N1CCC[C@H](N1)C(=O)OCC(C)(C)C2 (atropisomer, axis not shown; (M)) [Example 30]
pIC50: 6.36

Kindly consider the entry below.
So for CO[C@@H](C)c1ncc(N2CCN(C)CC2)cc1-c1c2c3cc(c(F)cc3n1CC(F)(F)F)-c1csc(n1)C[C@H](NC(=O)[C@H](C(C)C)N1CCCC3(CN(C(=O)[C@H](F)Cl)C3)C1=O)C(=O)N1CCC[C@H](N1)C(=O)OCC(C)(C)C2 (atropisomer, axis not shown; (M)) [Example 11] , the logged pIC50 turned out to be 5.73

###

tested on: NCI-H358 (ATCC-CRL5807) cells; assay: Cell viability assay, G12C (NCI-H358); format: cell-based, human; settings: Homo sapiens; KRAS cell viability, NCI-H358, 72 hrs, Cell Counting Kit-8
readout.label: IC50 (nM)
Response body: numeric value in nM, unit text excluded.

molecule: CO[C@@H](C)c1ncc(N2CCN(C)CC2)cc1-c1c2c3c(F)c(ccc3n1CC(F)(F)F)-c1csc(n1)C[C@H](NC(=O)[C@H](C(C)C)N1CCCC3(CCN(C(=O)[C@H](F)Cl)CC3)C1=O)C(=O)N1CCC[C@H](N1)C(=O)OCC(C)(C)C2 (atropisomer, axis not shown; (M))
IC50 [nM]: 3

Kindly consider the entry below.
So for CO[C@@H](C)c1ncc(N2CCN(C)CC2)cc1-c1c2c3cc(c(F)cc3n1CC(F)(F)F)-c1csc(n1)C[C@H](NC(=O)[C@H](C(C)C)N(C)C(=O)[C@H]1CCN(C(=O)[C@H](F)Cl)C1)C(=O)N1CCC[C@H](N1)C(=O)OCC(C)(C)C2 (atropisomer, axis not shown; (M)) , the logged IC50 turned out to be 2

These entries and their values trace back to patent US20250206761A1.
